# Tested on: NOMO1
# PROCEDURE_SUMMARY: cell viability relative to DMSO control; higher = less cytotoxic
# CONDITIONS_USED: RPMI 5 mM glucose + 10% dialyzed FBS; 48 h; 0.0632 µM
MEASUREMENT_NAME: cell viability (%)
Response body: numeric value in %, unit text excluded.

These recorded examples may help you get a feel for the data.
What the record says about `OC(=O)C1=CC=C(NC2=NC3=C(C\N=C(/C4=CC(=CC=C34)Cl)C5=C(F)C=CC=C5F)C=N2)C=C1` : cell viability is 89.8

cell viability measured on `CC(C)[C@@H](N(CCCN)C(=O)C1=CC=C(C)C=C1)C/2=N/C3=CC(=CC=C3C(=O)N2CC4=CC=CC=C4)Cl` = 22.9

// sample `COc1ccc(C[C@@H](C)[C@@H](C)Cc2ccc(OC)c(OC)c2)cc1OC` , its cell viability was 95.3

The recorded cell viability for CNC1CCC(N(Cc2cccc(-c3ccncc3)c2)C(=O)c2sc3ccccc3c2Cl)CC1 (stereo not drawn) is 84.7

Per the records, this compound ( `CN(CC#C)C/C1=C/C2=CC=CC=C2OC3=CC=CC=C13` ) has cell viability equal to 91.5

Others:
Please fill in: cell viability reported for `C/C=C1\NC(=O)[C@H]2CSSCC/C=C\[C@H](CC(=O)N[C@H](C(C)C)C(=O)N2)OC(=O)[C@H](C(C)C)NC1=O` = 30.1

Short answer for CC\1=C(C(\N=C(/N1)C2=CC(=NC=C2)Cl)C3=C(F)C=C(Cl)C=C3)/C(=O)NC4=C(F)C=C5[NH]N=CC5=C4 (stereo not drawn) : cell viability was 108

According to the records, this compound `COC1=CC2=NC=CC(=C2C=C1)OC3=CN=C(NC(=O)C/4=C(C)/N(CC(C)(C)O)N(C4=O)C5=CC=CC=C5)C=C3` displays cell viability of 97.7

* * *

Measured cell viability, listed per entry.
# Tested on: NOMO1
# PROCEDURE_SUMMARY: cell viability relative to DMSO control; higher = less cytotoxic
# CONDITIONS_USED: RPMI 5 mM glucose + 10% dialyzed FBS; 48 h; 0.0632 µM
Just the number please, in %, no unit attached.

Recorded cell viability (molecule `Cc1cc(OCCCc2c(C(=O)O)n(Cc3cccnc3)c3c(-c4c(COc5ccc(N6CCN([S+](C)(=O)[O-])CC6)cc5)nn(C)c4C)cccc23)cc(C)c1Cl` ): 95.8

// recorded cell viability for CN(C)CCOc1cc(-c2cn[nH]c2)ccc1NC(=O)C1COc2ccccc2O1 (configuration not stated) : 114

With those in mind, consider the next molecule.
Summary for this molecule, O=C([O-])C(O)Cc1ccc(O)c(O)c1 (configuration not stated) : cell viability is 96.4

* * *

# System: NOMO1
# PROCEDURE_SUMMARY: cell viability relative to DMSO control; higher = less cytotoxic
# CONDITIONS_USED: HPLM + 10% dialyzed FBS; 48 h; 0.00702 µM
Reported cell viability values for a set of molecules
I only need the number, in %, no unit after it.

Known results for molecules:
Bench note, NOMO1: COc1cccc2cc(-c3nc(C4CCC(C(=O)O)CC4)n4ncnc(N)c34)[nH]c12 (stereo unspecified) , cell viability reads 102

cell viability of `CN(CC#C)C/C1=C/C2=CC=CC=C2OC3=CC=CC=C13` , assay on NOMO1, is 91.5

Per the reported NOMO1 data, `Cc1cc(OCCCc2c(C(=O)O)n(Cc3cccnc3)c3c(-c4c(COc5ccc(N6CCN([S+](C)(=O)[O-])CC6)cc5)nn(C)c4C)cccc23)cc(C)c1Cl` has cell viability of 98.3

Value (cell viability, NOMO1) for record `CC(=O)Nc1ccc(OC[C@](C)(O)C(=O)Nc2ccc([N+](=O)[O-])c(C(F)(F)F)c2)cc1` = 72.9

More entries:
Measured cell viability for this entry CC\1=C(C(\N=C(/N1)C2=CC(=NC=C2)Cl)C3=C(F)C=C(Cl)C=C3)/C(=O)NC4=C(F)C=C5[NH]N=CC5=C4 (stereo unspecified) on NOMO1: 108

The reported NOMO1 cell viability of `OC[C@H]1O[C@@H](O[C@@H]2[C@@H](CO)O[C@](O)(CO)[C@H]2O)[C@H](O)[C@@H](O)[C@H]1O` is 110

Bench note, NOMO1: entry `C\C1=C\C(=O)OC2=C1C=CC(=C2)O` , its cell viability = 122

Entry `COC(=O)Nc1nc2cc(C(=O)c3cccs3)ccc2[nH]1` , NOMO1 data, cell viability value: 113

Value sought: cell viability, system NOMO1, item `O=NN(CCCl)C(=O)NC1CCCCC1` . Result: 110

The reported NOMO1 cell viability of `O=C(NCC[S+](=O)([O-])c1ccc(C(F)(F)F)cn1)c1ccc(Cl)cc1` is 119

cell viability for NOMO1 with input `OC1=C(O)C2=C(\C=C/C(=O)O2)C=C1` equals 109
